target: 72 kDa type IV collagenase (Homo sapiens) (UniProt P08253); assay: Ratio Kcat to Ki for MMP2
Sequence (P08253 110-660 limits assumed): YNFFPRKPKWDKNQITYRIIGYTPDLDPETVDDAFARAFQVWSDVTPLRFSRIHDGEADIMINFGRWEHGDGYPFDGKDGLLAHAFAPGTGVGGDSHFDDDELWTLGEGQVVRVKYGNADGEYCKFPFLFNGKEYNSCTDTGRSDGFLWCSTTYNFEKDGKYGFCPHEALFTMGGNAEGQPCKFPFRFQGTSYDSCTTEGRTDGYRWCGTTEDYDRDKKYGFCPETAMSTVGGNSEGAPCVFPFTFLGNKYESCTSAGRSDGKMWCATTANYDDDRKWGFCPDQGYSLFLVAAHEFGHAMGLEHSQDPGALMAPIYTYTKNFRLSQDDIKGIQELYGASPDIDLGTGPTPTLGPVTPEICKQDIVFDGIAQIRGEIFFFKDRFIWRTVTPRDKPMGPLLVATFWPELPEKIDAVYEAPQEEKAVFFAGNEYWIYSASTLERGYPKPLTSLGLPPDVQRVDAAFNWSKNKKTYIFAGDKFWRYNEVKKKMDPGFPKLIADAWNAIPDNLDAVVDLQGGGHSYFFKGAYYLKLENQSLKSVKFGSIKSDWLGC
Numbered stars: 1 amine (or outer) side, 2 acyl side, 3 side chain; on linkers, the order of the positions; unused ones are H or OH. Square brackets hold non-standard residues; d marks the D form. Peptide text beside a SMILES is read from it. * marks the point of attachment. Doxorubicin(3'-N) = COc1cccc2c1C(=O)c1c(O)c3c(c(O)c1C2=O)C[C@@](O)(C(=O)CO)C[C@@H]3O[C@H]1C[C@H](N*)[C@H](O)[C@H](C)O1; X4 = O=C(c1cc(S(=O)(=O)O)cc(S(=O)(=O)O)c1)*; X6 = CN1CCN(CCCC(N[*:1])C(=O)[*:2])CC1; hTyr = N[C@@H](CCc1ccc(O)cc1)C(=O)O; hPhe = N[C@@H](CCc1ccccc1)C(=O)O; X5 = O=C(CS(=O)(=O)O)*; Bn = c1ccc(C*)cc1
Would you mind labelling by Ratio? At or over 40 is True, under is False.

COc1cccc2c1C(=O)c1c(O)c3c(c(O)c1C2=O)C[C@@](O)(C(=O)CO)C[C@@H]3O[C@H]1C[C@H](NC(=O)[C@H](CC(C)C)NC(=O)[C@H](C)NC(=O)[C@H](CCc2ccccc2)NC(=O)CNC(=O)[C@H](CC(C)C)NC(=O)[C@@H]2CCCN2C(C)=O)[C@H](O)[C@H](C)O1 (Ac-PLG[hPhe]AL-{Doxorubicin(3'-N)}) : False

For this compound, is measured Ratio 40 or higher? COc1cccc2c1C(=O)c1c(O)c3c(c(O)c1C2=O)C[C@@](O)(C(=O)CO)C[C@@H]3O[C@H]1C[C@H](NC(=O)[C@H](CC(C)C)NC(=O)[C@H](CCc2ccc(O)cc2)NC(=O)[C@H](CCc2ccccc2)NC(=O)CNC(=O)[C@H](CC(C)C)NC(=O)[C@@H]2CCCN2C(C)=O)[C@H](O)[C@H](C)O1 (Ac-PLG[hPhe][hTyr]L-{Doxorubicin(3'-N)}) True

For this compound, is measured Ratio 40 or higher? COc1cccc2c1C(=O)c1c(O)c3c(c(O)c1C2=O)C[C@@](O)(C(=O)CO)C[C@@H]3O[C@H]1C[C@H](NC(=O)[C@H](CC(C)C)NC(=O)[C@H](Cc2ccc(O)cc2)NC(=O)[C@H](CC(C)C)NC(=O)CNC(=O)[C@H](CC(C)C)NC(=O)[C@@H]2CCCN2C(C)=O)[C@H](O)[C@H](C)O1 (Ac-PLGLYL-{Doxorubicin(3'-N)}) True

For this compound, is measured Ratio 40 or higher? COc1cccc2c1C(=O)c1c(O)c3c(c(O)c1C2=O)C[C@@](O)(C(=O)CO)C[C@@H]3O[C@H]1C[C@H](NC(=O)[C@H](CC(C)C)NC(=O)CNC(=O)[C@H](CC(C)C)NC(=O)[C@@H]2CCCN2C(C)=O)[C@H](O)[C@H](C)O1 (Ac-PLGL-{Doxorubicin(3'-N)}) False

For this compound, is measured Ratio 40 or higher? COc1cccc2c1C(=O)c1c(O)c3c(c(O)c1C2=O)C[C@@](O)(C(=O)CO)C[C@@H]3O[C@H]1C[C@H](NC(=O)[C@H](CC(C)C)NC(=O)C(CCCN2CCN(C)CC2)NC(=O)[C@H](CCc2ccccc2)NC(=O)CNC(=O)[C@H](CC(C)C)NC(=O)[C@@H]2CCCN2C(C)=O)[C@H](O)[C@H](C)O1 (stereo partly drawn) (Ac-PLG[hPhe][X6]L-{Doxorubicin(3'-N)}) True

For this compound, is measured Ratio 40 or higher? COC[C@H](NC(=O)CNC(=O)[C@H](CC(C)C)NC(=O)[C@@H]1CCCN1C(C)=O)C(=O)N[C@@H](Cc1ccc(O)cc1)C(=O)N[C@@H](CC(C)C)C(=O)N[C@H]1C[C@H](O[C@H]2C[C@](O)(C(=O)CO)Cc3c(O)c4c(c(O)c32)C(=O)c2c(OC)cccc2C4=O)O[C@@H](C)[C@H]1O (Ac-PLGS(Me)YL-{Doxorubicin(3'-N)}) False

For this compound, is measured Ratio 40 or higher? COc1cccc2c1C(=O)c1c(O)c3c(c(O)c1C2=O)C[C@@](O)(C(=O)CO)C[C@@H]3O[C@H]1C[C@H](NC(=O)[C@H](CC(C)C)NC(=O)[C@H](Cc2ccc(O)cc2)NC(=O)[C@H](CC(C)C)NC(=O)CNC(=O)[C@H](CC(C)C)NC(C)=O)[C@H](O)[C@H](C)O1 (Ac-LGLYL-{Doxorubicin(3'-N)}) False

For this compound, is measured Ratio 40 or higher? COc1cccc2c1C(=O)c1c(O)c3c(c(O)c1C2=O)C[C@@](O)(C(=O)CO)C[C@@H]3O[C@H]1C[C@H](NC(=O)[C@H](CC(C)C)NC(=O)[C@H](Cc2ccc(O)cc2)NC(=O)[C@H](COCc2ccccc2)NC(=O)CNC(=O)[C@H](CC(C)C)NC(=O)[C@@H]2CCCN2C(C)=O)[C@H](O)[C@H](C)O1 (Ac-PLGS(Bn)YL-{Doxorubicin(3'-N)}) False

For this compound, is measured Ratio 40 or higher? COc1cccc2c1C(=O)c1c(O)c3c(c(O)c1C2=O)C[C@@](O)(C(=O)CO)C[C@@H]3O[C@H]1C[C@H](NC(=O)[C@H](CC(C)C)NC(=O)[C@H](Cc2ccc(O)cc2)NC(=O)[C@@H](NC(=O)CNC(=O)[C@H](CO)NC(=O)[C@@H]2CCCN2C(=O)c2cc(S(=O)(=O)O)cc(S(=O)(=O)O)c2)[C@@H](C)OCc2ccccc2)[C@H](O)[C@H](C)O1 (X4-PSGT(Bn)YL-{Doxorubicin(3'-N)}) True

For this compound, is measured Ratio 40 or higher? COc1cccc2c1C(=O)c1c(O)c3c(c(O)c1C2=O)C[C@@](O)(C(=O)CO)C[C@@H]3O[C@H]1C[C@H](NC(=O)[C@H](CC(C)C)NC(=O)[C@H](Cc2ccc(O)cc2)NC(=O)[C@H](COCc2ccccc2)NC(=O)CNC(=O)[C@H](CC(C)C)NC(=O)[C@@H]2CCCN2C(=O)CS(=O)(=O)O)[C@H](O)[C@H](C)O1 (X5-PLGS(Bn)YL-{Doxorubicin(3'-N)}) False
